Assay system: Cytochrome P450 2A6 (Homo sapiens, UniProt P11509)
Procedure summary: Competitive inhibition of human CYP2A6 in baculovirus-infected insect cell system assessed as nicotine metabolism after 15 mins
pKi: −log10 of the molar value.
Entry flag: fulfilled if pKi reaches 6; not fulfilled if it does not.

>>> class_label("O=Cc1ccc2[nH]ccc2c1")
"not fulfilled"
>>> class_label("CN(C)Cc1cc2cnccc2s1")
"fulfilled"
>>> class_label("O=Cc1ccc2occc2c1")
"not fulfilled"
>>> class_label("O=Cc1cc2ccncc2s1")
"not fulfilled"

###

Assay system: Cytochrome P450 2A6 (Homo sapiens, UniProt P11509)
Procedure summary: Inhibition of human CYP2A6 in baculovirus-infected insect cell system using […] as substrate preincubated for 10 mins by fluorescence assay
pIC50: −log10 of the molar value.
Kind request: treat 6 as inclusive, so pIC50 at 6 or higher is class 1, anything lower is class 0.

>>> class_label("Brc1cc2ccccc2o1")
"class 0"
>>> class_label("O=Cc1ccc2[nH]ccc2c1")
"class 1"
>>> class_label("O=Cc1cc2ccccc2o1")
"class 0"
>>> class_label("Cc1cc2cc(N)ccc2[nH]1")
"class 0"
>>> class_label("O=Cc1cc2cnccc2s1")
"class 1"
>>> class_label("OCc1cc2ccccc2s1")
"class 0"

###

Assay system: UniProt P11509
Sequence (P11509 whole entry): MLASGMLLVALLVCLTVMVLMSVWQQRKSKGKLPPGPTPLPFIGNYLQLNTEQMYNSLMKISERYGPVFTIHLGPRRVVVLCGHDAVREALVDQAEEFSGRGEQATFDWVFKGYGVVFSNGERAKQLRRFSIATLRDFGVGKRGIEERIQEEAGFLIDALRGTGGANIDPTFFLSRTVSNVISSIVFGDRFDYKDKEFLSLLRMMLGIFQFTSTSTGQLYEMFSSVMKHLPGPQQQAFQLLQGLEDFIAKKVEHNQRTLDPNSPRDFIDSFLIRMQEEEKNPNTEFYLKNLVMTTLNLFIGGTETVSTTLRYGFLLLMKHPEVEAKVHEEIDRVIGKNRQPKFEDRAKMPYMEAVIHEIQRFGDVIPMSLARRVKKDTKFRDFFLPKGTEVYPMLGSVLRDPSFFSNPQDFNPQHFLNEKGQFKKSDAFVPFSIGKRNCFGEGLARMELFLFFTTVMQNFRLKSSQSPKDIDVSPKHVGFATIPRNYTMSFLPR
Procedure summary: Inhibition of human CYP2A6 in baculovirus-infected insect cell system using […] as substrate incubated for 30 mins prior to substrate addition measured after 10 mins by fluorescence assay
Test context: human, 10 min
Property name: inhibition (INH)

>>> observed("OCc1csc2ccccc12")
"Active"
>>> observed("O=Cc1cccc2ccsc12")
"Active"
>>> observed("Cc1csc2ccc(Cl)cc12")
"Active"
>>> observed("NCc1csc2ccc(Cl)cc12")
"Active"
>>> observed("O=Cc1c[nH]c2cc(Br)ccc12")
"Active"
>>> observed("CNCc1cc2cccnc2s1")
"Active"
>>> observed("O=Cc1c[nH]c2cccc(Br)c12")
"Active"
>>> observed("N#CCc1csc2ccc(Cl)cc12")
"Active"
>>> observed("Brc1ccc2[nH]ccc2c1")
"Active"

###

Ki overview
Assay system: Cytochrome P450 2A6 (Homo sapiens)
Procedure summary: Mixed-type inhibition of human CYP2A6 in baculovirus-infected insect cell system assessed as nicotine metabolism after 15 mins
Property name: Ki (µM)

>>> observed("NCc1csc2ccc(Br)cc12")
0.8
>>> observed("NCc1csc2ccc(Cl)cc12")
6
